Tested on: Escherichia coli TOP10
assayRemarks: shrunken log2 fold change of peptide-encoding DNA abundance (4.5 h post-induction vs induction); higher = less antimicrobial activity (less host growth inhibition)
testSettings: time post-induction: 4.5 h; library: site-saturation at positions 5, 18, 19, 20
Given measured shrunken log2 fold change, output Yes if it is greater than or equal to -0.02 and No if not.

INSERT INTO measurements (inputsequence, category) VALUES
  ('RRIRDRPPRLPRPRPRPHMPPRP', 'Yes'),
  ('RRIRGRPPRLPRPRPRPVIKPRP', 'Yes'),
  ('RRIRWRPPRLPRPRPRPYDMPRP', 'Yes'),
  ('RRIRCRPPRLPRPRPRPETYPRP', 'No'),
  ('RRIRWRPPRLPRPRPRPDKSPRP', 'No'),
  ('RRIRPRPPRLPRPRPRPNLLPRP', 'Yes'),
  ('RRIRYRPPRLPRPRPRPFYSPRP', 'No'),
  ('RRIRWRPPRLPRPRPRPQVRPRP', 'Yes'),
  ('RRIRTRPPRLPRPRPRPNYPPRP', 'Yes'),
  ('RRIRLRPPRLPRPRPRPIIIPRP', 'No'),
  ('RRIRGRPPRLPRPRPRPCGFPRP', 'Yes'),
  ('RRIRMRPPRLPRPRPRPSDKPRP', 'Yes'),
  ('RRIRKRPPRLPRPRPRPYRQPRP', 'No'),
  ('RRIRIRPPRLPRPRPRPPFMPRP', 'No'),
  ('RRIRGRPPRLPRPRPRPTPTPRP', 'Yes');

* * *

System: Escherichia coli TOP10
assayRemarks: shrunken log2 fold change of peptide-encoding DNA abundance (4.5 h post-induction vs induction); higher = less antimicrobial activity (less host growth inhibition)
testSettings: time post-induction: 4.5 h; library: site-saturation at positions 5, 18, 19, 20
Parameter shrunken log2 fold change: see the listing below.
metric: shrunken log2 fold change

INSERT INTO measurements (inputsequence, endpointresult) VALUES
  ('RRIRYRPPRLPRPRPRPTRYPRP', -0.469),
  ('RRIRERPPRLPRPRPRPEWNPRP', -0.197),
  ('RRIRWRPPRLPRPRPRPADMPRP', 0.0185),
  ('RRIRVRPPRLPRPRPRPIASPRP', 0.171),
  ('RRIRFRPPRLPRPRPRPMKGPRP', -0.0547),
  ('RRIRERPPRLPRPRPRPWYYPRP', 0.0432),
  ('RRIRWRPPRLPRPRPRPPMSPRP', 0.095),
  ('RRIRLRPPRLPRPRPRPYLKPRP', -0.396),
  ('RRIRMRPPRLPRPRPRPRWLPRP', 0.459),
  ('RRIRSRPPRLPRPRPRPLYAPRP', -0.164),
  ('RRIRDRPPRLPRPRPRPYYGPRP', 0.127),
  ('RRIRTRPPRLPRPRPRPPYIPRP', -0.694),
  ('RRIRGRPPRLPRPRPRPPPNPRP', 1.27),
  ('RRIRQRPPRLPRPRPRPEAHPRP', 0.0944),
  ('RRIRKRPPRLPRPRPRPVSFPRP', -0.0599);

* * *

Test system: Escherichia coli TOP10
assayRemarks: shrunken log2 fold change of peptide-encoding DNA abundance (4.5 h post-induction vs induction); higher = less antimicrobial activity (less host growth inhibition)
testSettings: time post-induction: 4.5 h; library: site-saturation at positions 5, 18, 19, 20
Parameter shrunken log2 fold change: see the listing below.
metric: shrunken log2 fold change

INSERT INTO assay_data (inputsequence, endpointresult) VALUES
  ('RRIRWRPPRLPRPRPRPAGHPRP', -0.0472),
  ('RRIRCRPPRLPRPRPRPCVKPRP', -0.439),
  ('RRIRRRPPRLPRPRPRPLVGPRP', 0.239),
  ('RRIRTRPPRLPRPRPRPKIDPRP', -0.0576),
  ('RRIRTRPPRLPRPRPRPMMCPRP', -0.59),
  ('RRIRSRPPRLPRPRPRPEPIPRP', 0.312),
  ('RRIRWRPPRLPRPRPRPHQRPRP', -0.0218),
  ('RRIRLRPPRLPRPRPRPFHRPRP', -0.246),
  ('RRIRNRPPRLPRPRPRPHGWPRP', 0.127),
  ('RRIRVRPPRLPRPRPRPHMMPRP', -0.659),
  ('RRIRIRPPRLPRPRPRPRESPRP', 0.133),
  ('RRIRDRPPRLPRPRPRPQSPPRP', 0.0974),
  ('RRIRWRPPRLPRPRPRPQWMPRP', 0.0674),
  ('RRIRSRPPRLPRPRPRPYGSPRP', -0.0102),
  ('RRIRGRPPRLPRPRPRPIAYPRP', 0.117);

* * *

Tested on: Escherichia coli TOP10
assayRemarks: shrunken log2 fold change of peptide-encoding DNA abundance (4.5 h post-induction vs induction); higher = less antimicrobial activity (less host growth inhibition)
testSettings: time post-induction: 4.5 h; library: site-saturation at positions 5, 18, 19, 20
Given measured shrunken log2 fold change, output Met if it is greater than or equal to 0.08 and Not met if not.

INSERT INTO results (inputsequence, category) VALUES
  ('RRIRWRPPRLPRPRPRPNSRPRP', 'Not met'),
  ('RRIRHRPPRLPRPRPRPWWPPRP', 'Not met'),
  ('RRIRSRPPRLPRPRPRPLYKPRP', 'Not met'),
  ('RRIRRRPPRLPRPRPRPTSQPRP', 'Met'),
  ('RRIRARPPRLPRPRPRPFFKPRP', 'Not met'),
  ('RRIRVRPPRLPRPRPRPRQSPRP', 'Met'),
  ('RRIRVRPPRLPRPRPRPRHSPRP', 'Met'),
  ('RRIRHRPPRLPRPRPRPHQNPRP', 'Not met'),
  ('RRIRMRPPRLPRPRPRPWRPPRP', 'Met'),
  ('RRIRERPPRLPRPRPRPNRLPRP', 'Not met'),
  ('RRIRARPPRLPRPRPRPIPNPRP', 'Not met'),
  ('RRIRNRPPRLPRPRPRPEHCPRP', 'Not met'),
  ('RRIRERPPRLPRPRPRPKYFPRP', 'Not met'),
  ('RRIRMRPPRLPRPRPRPFPKPRP', 'Met');

* * *

Test system: Escherichia coli TOP10
assayRemarks: shrunken log2 fold change of peptide-encoding DNA abundance (4.5 h post-induction vs induction); higher = less antimicrobial activity (less host growth inhibition)
testSettings: time post-induction: 4.5 h; library: site-saturation at positions 5, 18, 19, 20
Given measured shrunken log2 fold change, output MET if it is greater than or equal to 0.06 and NOT MET if not.

INSERT INTO measurements (inputsequence, category) VALUES
  ('RRIRDRPPRLPRPRPRPWPNPRP', 'MET'),
  ('RRIRVRPPRLPRPRPRPNLIPRP', 'NOT MET'),
  ('RRIRNRPPRLPRPRPRPNKGPRP', 'NOT MET'),
  ('RRIRWRPPRLPRPRPRPDTYPRP', 'NOT MET'),
  ('RRIRVRPPRLPRPRPRPCSLPRP', 'NOT MET'),
  ('RRIRNRPPRLPRPRPRPAHKPRP', 'NOT MET'),
  ('RRIRNRPPRLPRPRPRPFCEPRP', 'NOT MET'),
  ('RRIRIRPPRLPRPRPRPQHQPRP', 'NOT MET'),
  ('RRIRARPPRLPRPRPRPEIFPRP', 'MET'),
  ('RRIRIRPPRLPRPRPRPDHNPRP', 'NOT MET'),
  ('RRIRKRPPRLPRPRPRPRMLPRP', 'MET'),
  ('RRIRPRPPRLPRPRPRPAFFPRP', 'MET'),
  ('RRIRVRPPRLPRPRPRPFPVPRP', 'NOT MET'),
  ('RRIRCRPPRLPRPRPRPVSAPRP', 'MET'),
  ('RRIRARPPRLPRPRPRPPEWPRP', 'MET');

* * *

System: Escherichia coli TOP10;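 also: peptides expressed intracellularly from a pBAD plasmid library in pooled LB shake-flask culture, induced with 0.3% L-arabinose, DNA abundance read by NGS, three biological replicates, DESeq2 with apeglm shrinkage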
assayRemarks: shrunken log2 fold change of peptide-encoding DNA abundance (4.5 h post-induction vs induction); higher = less antimicrobial activity (less host growth inhibition)
testSettings: time post-induction: 4.5 h; library: site-saturation at positions 5, 18, 19, 20
Given measured shrunken log2 fold change, output 1 if it is greater than or equal to -0.02 and 0 if not.

INSERT INTO assay_data (inputsequence, category) VALUES
  ('RRIRKRPPRLPRPRPRPNAGPRP', 1),
  ('RRIRMRPPRLPRPRPRPYGAPRP', 0),
  ('RRIRTRPPRLPRPRPRPEYYPRP', 0),
  ('RRIRTRPPRLPRPRPRPTTHPRP', 1),
  ('RRIRHRPPRLPRPRPRPTGCPRP', 0),
  ('RRIRIRPPRLPRPRPRPRMIPRP', 1),
  ('RRIRQRPPRLPRPRPRPDMHPRP', 1),
  ('RRIRSRPPRLPRPRPRPGKNPRP', 0),
  ('RRIRSRPPRLPRPRPRPQMHPRP', 0),
  ('RRIRPRPPRLPRPRPRPDRYPRP', 0),
  ('RRIRVRPPRLPRPRPRPWPKPRP', 1),
  ('RRIRARPPRLPRPRPRPDKSPRP', 0),
  ('RRIRNRPPRLPRPRPRPCVFPRP', 0),
  ('RRIRNRPPRLPRPRPRPPCQPRP', 0),
  ('RRIRARPPRLPRPRPRPTREPRP', 1);
